Measurement notes: protein stability index of a GFP-peptide fusion (GPS, HEK-293T) (PSI 1-6); higher = more stable;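 note: 24-mer peptide tiles fused after GFP, lentivirally expressed, FACS-sorted into six equal bins by GFP/DsRed ratio, decoded by Illumina sequencing, PSI is the read-weighted mean bin number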
Setup conditions: treatment: DMSO; c terminus: a fixed tail appended
Property: protein stability index
The answer should be written as a number, with no unit following it.

Qu. Returns the measured protein stability index for the input sequence. Input: ISIVIFCLETLPEFRDDRDLVMAL [KCNA4]
Ans. 3.04

Qu. Returns the measured protein stability index for the input sequence. Input: CHPDDQFTTSILRHWCMKHDELLA [INTS3]
Ans. 3.03

Qu. Returns the measured protein stability index for the input sequence. Input: ELREACDYLCISFEYSTIKCRDLS [BTBD10]
Ans. 3.06

Qu. Returns the measured protein stability index for the input sequence. Input: WEEAAPGRAVEHAMFLGDAAAHWY [MYORG]
Ans. 3.05

Qu. Returns the measured protein stability index for the input sequence. Input: RLLMSQADKMTAEEVDQMFQFASI [MYL5]
Ans. 3.06

Qu. Returns the measured protein stability index for the input sequence. Input: QELELVLMISENNFLFRNAASTLT [ANKRD40]
Ans. 2.91

Qu. Returns the measured protein stability index for the input sequence. Input: LAPIHKLEEALYEYQPLQIETYGP [MNAT1]
Ans. 2.41

Qu. Returns the measured protein stability index for the input sequence. Input: SVTGHTNIVEYLIQEQPGQEQVAG [FEM1A]
Ans. 4.45

Qu. Returns the measured protein stability index for the input sequence. Input: IVVHCSAGIGRTGTFCSLDICLAQ [PTPN9]
Ans. 3.85

Qu. Returns the measured protein stability index for the input sequence. Input: GSYGGFASAPTTPCQKSPNGVRVF [TRIM9]
Ans. 3.17

Qu. Returns the measured protein stability index for the input sequence. Input: WKLQKKEHPPEVSRETQRTPMNHQ [FBXO34]
Ans. 4.52

Qu. Returns the measured protein stability index for the input sequence. Input: LEEYITDEQKEEEEEEGEEEELIR [FAM9B]
Ans. 5.37

Qu. Returns the measured protein stability index for the input sequence. Input: GLFAVGEHTGEVRTARALLDRDAL [PCDHGA10]
Ans. 3.84

Qu. Returns the measured protein stability index for the input sequence. Input: FFFLRMDENYNLLPHGVNFQDAIF [CCDC3]
Ans. 2.79

Qu. Returns the measured protein stability index for the input sequence. Input: `FSLRVHTGCHKKLGPEARRPRTRW`
Ans. 2.66

Qu. Returns the measured protein stability index for the input sequence. Input: RIADKFTQHNFQEVMESEEFMLLP [KLHL20]
Ans. 3.5

Qu. Returns the measured protein stability index for the input sequence. Input: HHLGSGSGAGGTGGPAGQAGRGGA [MYOZ1]
Ans. 4.9

Qu. Returns the measured protein stability index for the input sequence. Input: AWNPEDRSLNVFVKDDDRLTFHRH [SPSB4]
Ans. 3.65

Qu. Returns the measured protein stability index for the input sequence. Input: IDNARLAADDFRLKYENELALRQG [KRT15]
Ans. 4.24
